Reference source for all entries: patent US20090105283A1

# TGT: stearoyl-CoA desaturase (SCD) (Rattus norvegicus)
# Construct: The microsomes were quickly thawed and added to assay buffer so that a concentration of 0.4 mg/ml was achieved; from tissue
# Sequence (P07308 whole entry): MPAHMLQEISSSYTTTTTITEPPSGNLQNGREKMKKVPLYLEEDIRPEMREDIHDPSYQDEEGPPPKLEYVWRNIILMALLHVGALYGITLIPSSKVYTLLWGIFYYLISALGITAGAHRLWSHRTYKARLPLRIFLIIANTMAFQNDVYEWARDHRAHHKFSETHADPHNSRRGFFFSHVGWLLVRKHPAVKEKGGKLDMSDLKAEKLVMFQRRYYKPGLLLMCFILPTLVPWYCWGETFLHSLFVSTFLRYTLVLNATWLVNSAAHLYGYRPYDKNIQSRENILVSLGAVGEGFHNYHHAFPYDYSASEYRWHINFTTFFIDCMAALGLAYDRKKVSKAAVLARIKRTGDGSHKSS
# TEST_PROTOCOL: SCD assay with rat liver microsomes ([3H]stearoyl CoA, adapted from Talamo and Bloch)
# Type: biochemical
# RECORDED_CONDITIONS: Table 2 (Example 21, procedures of Example 20); rat liver microsomes, [3H]stearoyl CoA substrate
MEASURED_ATTRIBUTE: IC50 (nM)

Here is how some molecules turned out for IC50.
> print(dat)
                                    molecule  measured.attribute  test.value
 1  O=C(NCc1ccccc1)c1ccc2c(=O)n(Cc3ccc(Cl)c(Cl)c3)cnc2c1                IC50         950
 2  O=C(CO)Nc1ccc2ncn(CCOc3ccccc3Cl)c(=O)c2c1                IC50         340
 3  O=C(CO)Nc1ccc2ncn(CCCOc3ccccc3Cl)c(=O)c2c1                IC50         450
 4  O=C(NCCO)c1ccc2ncn(Cc3ccc(Cl)c(Cl)c3)c(=O)c2c1                IC50        2700
 5  COCCNC(=O)c1ccc2c(=O)n(Cc3ccc(Cl)c(Cl)c3)cnc2c1                IC50         580
 6  O=C(O)C(=O)Nc1ccc2ncn(Cc3ccc(Cl)c(Cl)c3)c(=O)c2c1                IC50         890
 7  O=C(COc1ccccc1)Nc1ccc2ncn(Cc3ccc(Cl)cc3)c(=O)c2c1                IC50        8000
 8  O=C(CO)Nc1ccc2ncn(CCCCOc3cc(Cl)ccc3Cl)c(=O)c2c1                IC50         240
 9  O=C(CO)Nc1ccc2c(=O)n(CCCOc3ccccc3F)cnc2c1                IC50       11000
10  CC(c1ccc(Cl)c(Cl)c1)n1cnc2ccc(NC(=O)CO)cc2c1=O (stereo not drawn)                IC50         210

P: O=C(Nc1ccc2ncn(CCCOc3ccccc3C(F)(F)F)c(=O)c2c1)OCc1ccccc1
Q: O=C(Nc1ccc2ncn(CCOc3ccccc3Cl)c(=O)c2c1)OCc1ccccc1
R: Cc1nc2cc(NC(=O)OCc3ccccc3)ccc2c(=O)n1Cc1ccc(Cl)c(Cl)c1
S: Cc1ccccc1OCCCn1cnc2ccc(NC(=O)CO)cc2c1=O
Rank by IC50 (largest to smallest). List the labels, following the order given in the request.
R, Q, S, P
(R: 1200 nM, Q: 180 nM, S: 100 nM, P: 69 nM)
